- Test summary: in vitro
- Condition context: human, hela cells, % viability
Parameter measured: viability at 28.5 h, 10 µM (%)
Give bare numbers, in %.

{"Molecule": "O=C1CCCN1CCCNc1ncnc2c1cnn2-c1ccc(Cl)cc1 [CBK265838]", "viability at 28.5 h, 10 µM / %": 97.1}
{"Molecule": "CCOC(=O)C1(C2CCCCC2)CCN(C(=O)CC2NC(=O)NC2=O)CC1 (centres unmarked) [CBK136938]", "viability at 28.5 h, 10 µM / %": 100}
{"Molecule": "CC(=O)Nc1ccc(S(=O)(=O)N2CCN(S(=O)(=O)c3ccccc3)CC2)cc1 [CBK264163]", "viability at 28.5 h, 10 µM / %": 94}
{"Molecule": "O=c1oc2cc(Oc3ccc([N+](=O)[O-])cc3C(F)(F)F)c(Cl)cc2c2c1CCCC2 [CBK264914]", "viability at 28.5 h, 10 µM / %": 93.7}

Fill in the blank: the reported viability at 28.5 h, 10 µM of CSc1ncc(C(=O)N2CCN3CCN(C)CC3C2)c(=O)[nH]1 (centres unmarked) [CBK307677] is ____.
104

---

- Test summary: in vitro
- Condition context: human, hela cells, % viability
Parameter measured: viability at 28.5 h, 10 µM (%)
Give bare numbers, in %.

// solved cases for viability at 28.5 h, 10 µM follow
{"Compound": "Cc1nccn1CCCn1cncc1-c1ccc2c(c1)CCCN2C", "Parameter measured": "viability at 28.5 h, 10 µM", "Measured result": 93.1}
{"Compound": "O=C1Nc2cc(C(F)(F)F)ccc2N2CCCC12 (stereo not drawn)", "Parameter measured": "viability at 28.5 h, 10 µM", "Measured result": 99.7}
{"Compound": "Cc1ccc2nc(C)cc(NC(=O)c3ccncc3)c2c1", "Parameter measured": "viability at 28.5 h, 10 µM", "Measured result": 81.5}

Look at each compound and report its viability at 28.5 h, 10 µM.
1. NC(=O)c1cccc(-c2nccnc2NCCO)c1
2. N#Cc1ccc(CN2C[C@@H]3OCC(=O)N[C@@H]3C2)cc1

1. 97
2. 103

Count: 8. Required value per item: viability at 28.5 h, 10 µM.
1. CCOc1ccc(NC(=O)Cn2c3c(c(-c4ccccc4)cc2=O)CCCC3)cc1
2. O=C(O)CN(CC(=O)O)c1ccccc1
3. COc1ccc(CC(=O)N2CCCC2c2nnc3ccccn23)cc1 (stereo not drawn)
4. O=C(NCC1(c2ccccc2)CCOCC1)c1ccno1
5. CCCC/C=C/c1nccnc1NCCc1ccncc1
6. Cn1nnnc1SCc1nc(N)nc(Nc2ccccc2)n1
7. Cc1cccc(CN2CCC(NC(=O)Cn3ccccc3=O)CC2)c1
8. Cc1nn(Cc2ccccc2)c(C)c1C(=O)N(C)C

85.8
90.7
117
98.2
99.9
98.7
111
104

---

- Test summary: in vitro
- Condition context: human, hela cells, % viability
Parameter measured: viability at 28.5 h, 10 µM (%)
One number for each entry, in %.

Sample records with viability at 28.5 h, 10 µM:
{"Compound": "CCCCOc1ccc(OC(=O)COCCOCCN2C(=O)c3ccccc3C2=O)cc1 [CBK155584]", "Unit text": "%", "Measured result": 92.6}
{"Compound": "COc1cncc(-c2cncc(N3CCN(CCN(C)C)CC3)n2)c1 [CBK065393]", "Unit text": "%", "Measured result": 120}
{"Compound": "Cc1nc(-c2ccccc2)sc1CNC(=O)C1CC1C (centres unmarked) [CBK092369]", "Unit text": "%", "Measured result": 97}
{"Compound": "O=C(O)c1ccccc1N1C(=O)C2CC=C(Cl)CC2C1=O (centres unmarked) [CBK287007]", "Unit text": "%", "Measured result": 94.4}

In the following, a different compound is considered.
Query: viability at 28.5 h, 10 µM; subject: CCOC(=O)c1c(N)n(-c2cccc(C(F)(F)F)c2)c2nc3ccccc3nc12 [CBK264977]
95.6
